Tested on: Plasmodium falciparum
ASSAY_INFO: Antimalarial activity against chloroquine-resistant Plasmodium falciparum K1 infected in erythroctes incubated for 72 hrs by SYBR green 1 based spectrofluorometer
Assay type: functional, organism-based, Erythrocyte
EXPERIMENTAL_CONDITIONS: erythrocyte
Assign labels as follows, please: YES for EC50 below 40 nM; NO for EC50 equal to or exceeding 40 nM.

CCOC(=O)C1=C(C)NC2=C(C(=O)CC(c3ccc(OC)c(OC)c3)C2)C1c1ccc(Cl)cc1C (mixture of isomers) : YES
CCOC(=O)C1=C(c2ccccc2)NC2=C(C(=O)CC(c3ccc(OC)c(OC)c3)C2)C1c1ccccc1Cl (stereo in doubt; 35A) : NO
CCOC(=O)C1=C(C)NC2=C(C(=O)CC(c3ccc(OC)c(OC)c3)C2)C1c1ccccc1Cl (stereo in doubt; 2A) : NO
COCC1=C(C(=O)OC)C(c2ccc(Cl)cc2C)C2=C(CC(c3ccc(OC)c(OC)c3)CC2=O)N1 (mixture of isomers) : YES
CCOC(=O)C1=C(C)NC2=C(C(=O)OC(c3ccc(OC)c(OC)c3)C2)C1c1ccc(Br)cc1 (mixture of isomers) : NO
CCOC(=O)C1=C(C)NC2=C(C(=O)OC(c3ccc(Cl)c(OC)c3)C2)C1c1ccc(Cl)cc1C (stereo in doubt; 42A) : NO
CCOC(=O)C1=C(c2ccccc2)NC2=C(C(=O)CC(c3ccc(OC)c(OC)c3)C2)C1c1ccccc1Cl (mixture of isomers) : NO
CCOC(=O)C1=C(C)NC2=C(C(=O)OC(c3ccc(Cl)c(OC)c3)C2)C1c1ccccc1Cl (stereo in doubt; 40B) : NO
COC(=O)C1=C(C)NC2=C(C(=O)OC(c3ccc(OC)c(OC)c3)C2)C1c1ccccc1Cl (stereo in doubt; 28B) : NO
CCOC(=O)C1=C(C)NC2=C(C(=O)OC(c3ccc(OC)c(OC)c3)C2)C1c1ccc(Cl)cc1C (stereo in doubt; 38B) : YES
CCOC(=O)C1=C(C)NC2=C(C(=O)OC(c3ccc(OC)cc3)C2)C1c1ccccc1Cl (stereo in doubt; 26B) : NO
CCOC(=O)C1=C(C(=O)OCC)C(c2ccccc2Cl)C2=C(CC(c3ccc(OC)c(OC)c3)OC2=O)N1 (stereo in doubt; 33A) : YES
CCOC(=O)C1=C(C)NC2=C(C(=O)CC(c3ccc(OC)c(OC)c3)C2)C1c1ccc(Cl)cc1 (mixture of isomers) : YES
CCOC(=O)C1=C(C)NC2=C(C(=O)OC(c3ccc(OC)c(OC)c3)C2)C1c1ccccc1C (stereo in doubt; 6B) : NO

----------
Tested on: Plasmodium falciparum
ASSAY_INFO: Antimalarial activity against chloroquine-sensitive Plasmodium falciparum 3D7 infected in erythroctes incubated for 72 hrs by SYBR green 1 based spectrofluorometer
Format: functional, organism-based, Erythrocyte
EXPERIMENTAL_CONDITIONS: Plasmodium falciparum, 3D7, Erythrocyte, 72 h
pEC50: −log10 of the molar value.
VALUE_KIND: pEC50

CCOC(=O)C1=C(C)NC2=C(C(=O)OC(c3cccc(C)c3)C2)C1c1ccccc1Cl (stereo in doubt; 22A) : < 5.30
CCOC(=O)C1=C(C)NC2=C(C(=O)OC(c3ccc(OC)c(OC)c3)C2)C1c1ccc(-c2ccccc2)cc1 (stereo not drawn) : < 5.00
CCOC(=O)C1=C(C)NC2=C(C(=O)OC(c3ccccc3Cl)C2)C1c1ccccc1Cl (stereo in doubt; 18A) : < 5.26
CCOC(=O)C1=C(C)NC2=C(C(=O)OC(c3ccc(OC)c(OC)c3)C2)C1c1ccc(OC)cc1 (stereo not drawn) : < 5.00
COc1ccc(C2CC3=C(C(=O)O2)C(c2ccccc2Cl)C(C(=O)OC(C)(C)C)=C(C)N3)cc1OC (stereo in doubt; 30A) : < 4.89
COc1ccc(C2CC(=O)C3=C(C2)NC(C)=C(C(=O)O)C3c2ccccc2Cl)cc1OC (stereo in doubt; 27A) : < 4.82
OC(c1cc(C(F)(F)F)nc2c(C(F)(F)F)cccc12)C1CCCCN1 (stereo not drawn) [MEFLOQUINE] : 7.21
CCOC(=O)C1=C(C)NC2=C(C(=O)OC(c3ccccc3)C2)C1c1ccccc1Cl (stereo in doubt; 17A) : < 5.02

All values here come from ChEMBL document CHEMBL5579840.
